- Measurement Description: cn = amount concentration of the nth substance listed, in mol/dm3
- Assay Setup: 303 K; 101 kPa; Liquid; Linear variable-path acoustic interferometer; c1 = 0.002
± gives the expanded uncertainty stated by the source.

{"Molecule": "Cc1ccccc1N [2-methylaniline] + C[S+](C)[O-]", "speed of sound": "1471.4 ± 3.2 m/s"}
{"Molecule": "O=C1C(Cl)=C(Cl)C(=O)C(Cl)=C1Cl [2,3,5,6-tetrachloro-p-benzoquinone] + C[S+](C)[O-]", "speed of sound": "1472.4 ± 3.2 m/s"}
{"Molecule": "CNc1ccccc1 [N-methylaniline] + C[S+](C)[O-]", "speed of sound": "1471.6 ± 3.2 m/s"}
{"Molecule": "CN(C)c1ccccc1 [N,N-dimethylaniline] + C[S+](C)[O-]", "speed of sound": "1471.9 ± 3.2 m/s"}
{"Molecule": "Nc1ccccc1 [aniline] + C[S+](C)[O-]", "speed of sound": "1471.6 ± 3.2 m/s"}

====

- Measurement Description: cn = amount concentration of the nth substance listed, in mol/dm3
- Assay Setup: 303 K; 101 kPa; Liquid; Capillary tube (Ostwald / Ubbelohde) method; c1 = 0.01

{"Compound": "CN(C)c1ccccc1 [N,N-dimethylaniline] + C[S+](C)[O-]", "viscosity, mPa·s": 1.747}
{"Compound": "Cc1ccccc1N [2-methylaniline] + C[S+](C)[O-]", "viscosity, mPa·s": 1.72}
{"Compound": "CNc1ccccc1 [N-methylaniline] + C[S+](C)[O-]", "viscosity, mPa·s": 1.724}
{"Compound": "O=C1C(Cl)=C(Cl)C(=O)C(Cl)=C1Cl [2,3,5,6-tetrachloro-p-benzoquinone] + C[S+](C)[O-]", "viscosity, mPa·s": 1.769}
{"Compound": "Nc1ccccc1 [aniline] + C[S+](C)[O-]", "viscosity, mPa·s": 1.806}

====

viscosity reference
- Measurement Description: cn = amount concentration of the nth substance listed, in mol/dm3
- Assay Setup: 303 K; 101 kPa; Liquid; Capillary tube (Ostwald / Ubbelohde) method; c1 = 0.016
Assay Metric: viscosity (mPa·s)

{"Molecule": "Nc1ccccc1 [aniline] + C[S+](C)[O-]", "Assay Metric": "viscosity", "Result Value": 1.819}
{"Molecule": "O=C1C(Cl)=C(Cl)C(=O)C(Cl)=C1Cl [2,3,5,6-tetrachloro-p-benzoquinone] + C[S+](C)[O-]", "Assay Metric": "viscosity", "Result Value": 1.756}
{"Molecule": "CNc1ccccc1 [N-methylaniline] + C[S+](C)[O-]", "Assay Metric": "viscosity", "Result Value": 1.718}
{"Molecule": "CN(C)c1ccccc1 [N,N-dimethylaniline] + C[S+](C)[O-]", "Assay Metric": "viscosity", "Result Value": 1.731}
{"Molecule": "Cc1ccccc1N [2-methylaniline] + C[S+](C)[O-]", "Assay Metric": "viscosity", "Result Value": 1.724}

====

- Measurement Description: cn = amount concentration of the nth substance listed, in mol/dm3
- Assay Setup: 303 K; 101 kPa; Liquid; Linear variable-path acoustic interferometer; c1 = 0.006
Items are presented alongside their recorded speed of sound.

{"Compound": "CN(C)c1ccccc1 [N,N-dimethylaniline] + C[S+](C)[O-]", "speed of sound (m/s)": 1471.9}
{"Compound": "O=C1C(Cl)=C(Cl)C(=O)C(Cl)=C1Cl [2,3,5,6-tetrachloro-p-benzoquinone] + C[S+](C)[O-]", "speed of sound (m/s)": 1471.9}
{"Compound": "Nc1ccccc1 [aniline] + C[S+](C)[O-]", "speed of sound (m/s)": 1473.4}
{"Compound": "Cc1ccccc1N [2-methylaniline] + C[S+](C)[O-]", "speed of sound (m/s)": 1472}
{"Compound": "CNc1ccccc1 [N-methylaniline] + C[S+](C)[O-]", "speed of sound (m/s)": 1472}

====

Reported mass density values for a set of compounds
- Measurement Description: cn = amount concentration of the nth substance listed, in mol/dm3
- Assay Setup: 303 K; 101 kPa; Liquid; Pycnometric method; c1 = 0.016
Numbers after ± are expanded uncertainties.

{"Compound": "CN(C)c1ccccc1 [N,N-dimethylaniline] + C[S+](C)[O-]", "mass density": "1089.8 ± 0.8 kg/m3"}
{"Compound": "Cc1ccccc1N [2-methylaniline] + C[S+](C)[O-]", "mass density": "1089.8 ± 0.8 kg/m3"}
{"Compound": "CNc1ccccc1 [N-methylaniline] + C[S+](C)[O-]", "mass density": "1089.8 ± 0.8 kg/m3"}
{"Compound": "O=C1C(Cl)=C(Cl)C(=O)C(Cl)=C1Cl [2,3,5,6-tetrachloro-p-benzoquinone] + C[S+](C)[O-]", "mass density": "1091.2 ± 0.8 kg/m3"}
{"Compound": "Nc1ccccc1 [aniline] + C[S+](C)[O-]", "mass density": "1090.3 ± 0.8 kg/m3"}

====

Listed next: entries and their corresponding mass density.
- Measurement Description: cn = amount concentration of the nth substance listed, in mol/dm3
- Assay Setup: 303 K; 101 kPa; Liquid; Pycnometric method; c1 = 0.02

{"Compound": "CNc1ccccc1 [N-methylaniline] + C[S+](C)[O-]", "mass density / kg/m3": 1090.1}
{"Compound": "Nc1ccccc1 [aniline] + C[S+](C)[O-]", "mass density / kg/m3": 1090.6}
{"Compound": "O=C1C(Cl)=C(Cl)C(=O)C(Cl)=C1Cl [2,3,5,6-tetrachloro-p-benzoquinone] + C[S+](C)[O-]", "mass density / kg/m3": 1091.7}
{"Compound": "Cc1ccccc1N [2-methylaniline] + C[S+](C)[O-]", "mass density / kg/m3": 1090.3}
{"Compound": "CN(C)c1ccccc1 [N,N-dimethylaniline] + C[S+](C)[O-]", "mass density / kg/m3": 1090.2}

====

- Measurement Description: cn = amount concentration of the nth substance listed, in mol/dm3
- Assay Setup: 303 K; 101 kPa; Liquid; Pycnometric method; c1 = 0.018

{"Molecule": "CNc1ccccc1 [N-methylaniline] + C[S+](C)[O-]", "Endpoint Unit": "kg/m3", "mass density": 1089.8}
{"Molecule": "O=C1C(Cl)=C(Cl)C(=O)C(Cl)=C1Cl [2,3,5,6-tetrachloro-p-benzoquinone] + C[S+](C)[O-]", "Endpoint Unit": "kg/m3", "mass density": 1091.7}
{"Molecule": "Nc1ccccc1 [aniline] + C[S+](C)[O-]", "Endpoint Unit": "kg/m3", "mass density": 1090.4}
{"Molecule": "Cc1ccccc1N [2-methylaniline] + C[S+](C)[O-]", "Endpoint Unit": "kg/m3", "mass density": 1089.4}
{"Molecule": "CN(C)c1ccccc1 [N,N-dimethylaniline] + C[S+](C)[O-]", "Endpoint Unit": "kg/m3", "mass density": 1090.3}

====

Listing of entries alongside the reported mass density.
- Measurement Description: cn = amount concentration of the nth substance listed, in mol/dm3
- Assay Setup: 303 K; 101 kPa; Liquid; Pycnometric method; c1 = 0.012

{"Compound": "CNc1ccccc1 [N-methylaniline] + C[S+](C)[O-]", "mass density / kg/m3": 1090}
{"Compound": "Nc1ccccc1 [aniline] + C[S+](C)[O-]", "mass density / kg/m3": 1090.4}
{"Compound": "O=C1C(Cl)=C(Cl)C(=O)C(Cl)=C1Cl [2,3,5,6-tetrachloro-p-benzoquinone] + C[S+](C)[O-]", "mass density / kg/m3": 1091.6}
{"Compound": "Cc1ccccc1N [2-methylaniline] + C[S+](C)[O-]", "mass density / kg/m3": 1090}
{"Compound": "CN(C)c1ccccc1 [N,N-dimethylaniline] + C[S+](C)[O-]", "mass density / kg/m3": 1089.6}

====

- Measurement Description: cn = amount concentration of the nth substance listed, in mol/dm3
- Assay Setup: 303 K; 101 kPa; Liquid; Capillary tube (Ostwald / Ubbelohde) method; c1 = 0.008
Assay Metric: viscosity (mPa·s)

{"Molecule": "Cc1ccccc1N [2-methylaniline] + C[S+](C)[O-]", "Assay Metric": "viscosity", "Result Value": 1.718}
{"Molecule": "CN(C)c1ccccc1 [N,N-dimethylaniline] + C[S+](C)[O-]", "Assay Metric": "viscosity", "Result Value": 1.731}
{"Molecule": "O=C1C(Cl)=C(Cl)C(=O)C(Cl)=C1Cl [2,3,5,6-tetrachloro-p-benzoquinone] + C[S+](C)[O-]", "Assay Metric": "viscosity", "Result Value": 1.773}
{"Molecule": "Nc1ccccc1 [aniline] + C[S+](C)[O-]", "Assay Metric": "viscosity", "Result Value": 1.79}
{"Molecule": "CNc1ccccc1 [N-methylaniline] + C[S+](C)[O-]", "Assay Metric": "viscosity", "Result Value": 1.718}
